B1: LINE1-mini (parent)
chain: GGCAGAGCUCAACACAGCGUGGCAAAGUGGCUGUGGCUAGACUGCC

Variants of: B1
MEASUREMENT DESCRIPTION: self-cleavage, relative activity (ratio to wild type); higher = more cleavage; in vitro, sequencing; the parent is a self-cleaving ribozyme
self-cleavage listing for selected variants.
QUANTITY KIND: self-cleavage

| VARIANT KEY | RECORDED VALUE |
| --- | --- |
| C13U A25C | 0.13 |
| G17A A39U | 0.06 |
| A11C A12U | 0.03 |
| G36A | 0.2 |
| A16C G33A | 0.07 |
| U9G G44U | 0.08 |
